System: B.anthracis V770-NR1-R
Test Details: microbe, parasite or virus in culture
Type: cell-based
Conditions Used: Bacillus anthracis, V770NR1R, read-out: MIC B.anthracis V770-NR1-R
List of MIC values.
// note: answer is a bare numeric in µg/mL

Below: 5 compounds and their reported MIC.
Looking up `Oc1cc(Cl)c(-n2cnnn2)cc1Oc1ccc(Cl)cc1Cl` , I found its MIC recorded as 800

// `N/C(=N/O)c1cc(Oc2ccc(Cl)cc2Cl)c(O)cc1Cl` : MIC value = 200

The compound listed as `CCOC(=O)c1nc(-c2cc(Oc3ccc(Cl)cc3Cl)c(O)cc2Cl)no1` has a reported MIC of 100

Sample `O=C(O)c1nc(-c2cc(Oc3ccc(Cl)cc3Cl)c(O)cc2Cl)no1` ; MIC observed: 50

Record summary for `CCOC(=O)NC(=S)Nc1ccc(O)c(Oc2ccccc2O)c1` : reported MIC = 3100

Further cases:
Recorded result, `O=C(Nc1cc(C(F)(F)F)cc(C(F)(F)F)c1)Nc1cc(Oc2ccc(Cl)cc2Cl)c(O)cc1Cl` , MIC: 800

// `Oc1cc(Cl)c(-c2cccs2)cc1Oc1ccc(Cl)cc1Cl` : MIC value = 50

MIC in this record for `Cc1cc(O)c(Oc2ccccc2C#N)cc1N1CCOCC1` : 6200

---

Consider the following compounds and their measured melting point readings.

# melting point of `O=C(O)c1nc(-c2cc(Oc3ccc(Cl)cc3Cl)c(O)cc2Cl)no1` = 115 °C

The reported value for `CCOC(=O)c1nc(-c2cc(Oc3ccc(Cl)cc3Cl)c(O)cc2Cl)no1` in terms of melting point is 130 °C

Entry `Oc1cc(Cl)c(-n2cnnn2)cc1Oc1ccc(Cl)cc1Cl` — recorded melting point = 147 to 148 °C

GET /value?item= `OB(O)c1cc(Oc2ccc(Cl)cc2Cl)c(O)cc1Cl` &field=melting point returns 180 to 183 °C

The reported value for `Oc1cc(Cl)c(NC(=S)Nc2ccc(F)cc2)cc1Oc1ccc(Cl)cc1Cl` in terms of melting point is 89 to 91 °C

***
Reported melting point ( `Oc1cc(Cl)c(-c2nnn[nH]2)cc1Oc1ccc(Cl)cc1Cl` ) = 174 to 180 °C

// recorded melting point for `Oc1cc(Cl)c(-n2cccc2)cc1Oc1ccc(Cl)cc1Cl` : 86 to 87 °C

Memo: `CCOC(=O)NC(=S)Nc1cc(Oc2ccc(Cl)cc2Cl)c(O)cc1Cl` , reported melting point: 170 to 172 °C

Memo: `N/C(=N/O)c1cc(Oc2ccc(Cl)cc2Cl)c(O)cc1Cl` , reported melting point: 137 °C

// field: melting point; key: `O=C(O)c1cc(Oc2ccc(Cl)cc2Cl)c(O)cc1Cl` ; value = 192 to 196 °C

The compound identified as `N#Cc1cc(Cl)ccc1Oc1cc(N2CCOCC2)c(F)cc1O` registered its melting point at 149 to 151 °C

Per the record, `Cc1cc(O)c(Oc2ccccc2C#N)cc1-n1cccc1` has melting point of 158 to 160 °C

Entry `Oc1cc(Cl)c(N2CCOCC2)cc1Oc1ccc(Cl)cc1Cl` — recorded melting point = 187 to 188 °C

---

Catalogue of log10 of MIC values
Test system: B.anthracis V770-NR1-R
Test Details: microbe, parasite or virus in culture
Type: cell-based
Conditions Used: Bacillus anthracis, V770NR1R, read-out: MIC B.anthracis V770-NR1-R
Recall that a logarithmic scale is used here: each number is log10 of MIC in mg/L.

Below are worked cases with known answers.
Measured log10 of MIC (B.anthracis V770-NR1-R), entry Cc1cc(O)c(Oc2ccccc2C#N)cc1-c1cccs1 [Example 26] : 4.10

// assay B.anthracis V770-NR1-R, entry Oc1cc(Cl)c(N2CCOCC2)cc1Oc1ccc(Cl)cc1Cl [Example 1] , log10 of MIC value = 3.20

Assay B.anthracis V770-NR1-R, sample Oc1cc(Cl)c(-n2cccc2)cc1Oc1ccc(Cl)cc1Cl [Example 17] , log10 of MIC read: 2.00

Next:
Case Oc1cc(Cl)c(NC(=S)Nc2cc(C(F)(F)F)cc(C(F)(F)F)c2)cc1Oc1ccc(Cl)cc1Cl [Example 16] , B.anthracis V770-NR1-R, log10 of MIC recorded as 2.30

Form: item Oc1cc(Cl)c(-c2ccsc2)cc1Oc1ccc(Cl)cc1Cl [Example 5] ; test system B.anthracis V770-NR1-R; log10 of MIC: 2.60

Entry Cc1cc(O)c(Oc2ccccc2C#N)cc1-c1ccco1 [Example 28] , tested on B.anthracis V770-NR1-R, has a reported log10 of MIC of 2.90

I looked up CCOC(=O)NC(=S)Nc1cc(Oc2ccc(Cl)cc2Cl)c(O)cc1Cl [Example 7] and its log10 of MIC for B.anthracis V770-NR1-R was 3.20

Per the reported B.anthracis V770-NR1-R data, Oc1cc(Cl)c(NC(=S)Nc2ccc(F)cc2)cc1Oc1ccc(Cl)cc1Cl [Example 10] has log10 of MIC of 3.20

With B.anthracis V770-NR1-R as the test system, Cc1cc(O)c(Oc2ccccc2C#N)cc1-c1ccsc1 [Example 27] showed log10 of MIC of 3.20

Form field log10 of MIC for item Oc1cc(Cl)c(-c2nnn[nH]2)cc1Oc1ccc(Cl)cc1Cl [Example 33] on B.anthracis V770-NR1-R: 4.10

---

Recorded MIC by entry
Tested on: B.anthracis V770-NR1-R
Test Details: microbe, parasite or virus in culture
Type: cell-based
Conditions Used: Bacillus anthracis, V770NR1R, read-out: MIC B.anthracis V770-NR1-R

// worked examples, MIC included
Considering N#Cc1ccccc1Oc1cc(-n2cccc2)ccc1O [Example 18] , its MIC with B.anthracis V770-NR1-R was recorded as > 25 mg/mL

Measured MIC (B.anthracis V770-NR1-R), entry O=C(Nc1cc(Oc2ccc(Cl)cc2Cl)c(O)cc1Cl)c1ccco1 [Example 20] : > 25 mg/mL

Turning to the following molecule.
// MIC (B.anthracis V770-NR1-R) for CN1CCN(c2cc(Oc3ccc(Cl)cc3Cl)c(O)cc2Cl)CC1 [Example 2] = > 25 mg/mL
